Taken from PubChem BioAssay AID868.

- ASSAY_TEXT: inhibitors of the yeast RAM network, primary screen, dse1pr::URA3 reporter, 5-FOA selection (AID 868);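 note: inhibition rescues growth on 5-FOA so higher OD means more RAM inhibition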
- STATED_CONDITIONS: S. cerevisiae dse1pr::URA3 reporter, 5-FOA growth OD615, 2 d; at 50 µM; analog-sensitive cbk1-as2 kinase mutant strain
Screen size: about 190,000 compounds; about 3,500 (1.8%) were called active.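 Rule for the calls: active = inhibition above a set limit, 3 SD over mean compound inhibition (cut at about 8.4% in these data); inactive = the rest.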 This is one part of a sample in which actives are shown more often than they occur.
Form entry, call: pick from YES (active), NO (inactive)

> print(dat)
                                    compound  assigned.class
 1  O=C(O)C1CCCN(S(=O)(=O)c2cccc3cccnc23)C1 (stereo unspecified)              NO
 2       CSC1=N/C(=C\c2ccc3c(c2)OCO3)C(=O)S1              NO
 3        N#Cc1ccc(-c2ccc(F)cc2)nc1Sc1ccccc1             YES
 4  CCOC(=O)C/C(C)=N\Nc1ccc([N+](=O)[O-])cc1[N+](=O)[O-]              NO
 5  Nc1ccc(-c2nnc(-c3ccc(-c4ccccc4)cc3)o2)cc1              NO
 6    CCc1nc(Nc2ccc3nccnc3c2)c2oc3ccccc3c2n1             YES
 7  CCc1ccc(NC(=O)C(C)OC(=O)/C=C/c2cccc([N+](=O)[O-])c2)cc1 (stereo unspecified)              NO
 8            COc1ccccc1Nc1ncnc2c1oc1ccccc12              NO
 9  CSCC(=O)N1CCCC(C(=O)c2cc(F)ccc2F)C1 (stereo unspecified)              NO
10  c1ccc(CSc2nnc(-c3ccco3)c(-c3ccco3)n2)cc1              NO

Any idea what this test logged for `O=C(O)CSc1nccc2ccccc12` ?
NO

Dear colleague, could you share the recorded outcome for `CC(=O)NC1(c2ccc(F)cc2)CCN(C(=O)c2c(F)cccc2F)CC1` when you have a moment?
NO

GET /call?item= `Cc1ccccc1CSCCNC(=O)c1ccc(Cl)c(S(=O)(=O)N2CCOCC2)c1` returns the recorded outcome of this test.
NO

Which outcome was assigned to `Cc1ccc(-c2cc(C(=O)N/N=C/C=C/c3ccccc3)n[nH]2)o1` in this test?
NO

Assay outcome for COc1ccc(NC(=O)C2CCCN(S(=O)(=O)c3cccc4cccnc34)C2)cc1 (stereo unspecified) : what was it?
YES

Could you please tell me the result logged for `COc1cc(N2CCCC2)c(OC)cc1/C=C(/C#N)c1cccc(Br)c1` in this assay?
YES

Hi, do you know how `Cc1ccc(-c2noc(CN3CCN(Cc4ccccc4)CC3)n2)cc1` came out in this test?
NO

Look up the recorded call for `COc1ccc(C(=O)CSc2nc(C)cc(C)n2)cc1[N+](=O)[O-]` in this test.
NO

Returns: the outcome recorded for `CCSc1nc(C)nc2c1oc1ccccc12` in this assay.
NO

I'd appreciate the recorded outcome for COc1ccc(C2CC(c3cccs3)=NN2C(=O)CSc2nncs2)cc1OC (stereo unspecified) from this test.
NO

Which outcome was assigned to `CCCn1c(=O)c2c(C(F)(F)F)cc(-c3cccs3)nc2n(CCC)c1=O` in this test?
NO

Check the results log: what was the call for `S=c1ccc2ccccc2[nH]1` ?
NO

Fill in: this test's call for `COc1ccc(CN(Cc2ccco2)S(=O)(=O)c2ccc(S(=O)(=O)N3CCCC3)cc2)cc1` is ___
YES

Which outcome was assigned to `CCc1cccc2c(=O)c(C(=O)NCCCOC)c[nH]c12` in this test?
NO

Would you mind telling me which call this test gave `CCOc1ccc(CN(Cc2ccco2)S(=O)(=O)c2ccc(-n3cnnn3)c(OC)c2)cc1` ?
NO

Tell me the assay call for `Cc1ccc(C(=O)NCCNS(=O)(=O)c2ccccc2)cc1` please.
NO

Hey, what did the test say about `CSc1ccccc1-c1nnc(-c2ccc(Cl)cc2)o1` ?
YES

For this compound, state the assay outcome: `COc1ccc(S(=O)(=O)NCc2ccc(C(=O)N(C)Cc3ccco3)cc2)cc1`
NO

Look up the recorded call for `O=C(CN1CCN(C/C=C/c2ccccc2)CC1)Nc1ccc(F)cc1F` in this test.
NO

Per the records of this test, what outcome belongs to `Cc1ccc(-c2noc(CC(c3ccccc3)c3ccccc3)n2)cc1` ?
YES

How was `O=C(O)CSc1nnc(-c2ccc3c(c2)OCO3)n1-c1ccccc1` classified in this test?
NO

Please indicate how the test categorized `N#Cc1ccc(-c2ccc(Cl)cc2)nc1Oc1ccc(F)cc1` .
NO

Please state the recorded outcome for this compound: `Cc1ccccc1CSCCNC(=O)c1ccc(N(C)S(=O)(=O)c2ccccc2)cc1`
YES

Outcome logged for `CC(=O)N(CCCN(C)C)c1nc2ccc(C)cc2s1` in this assay:
NO
